- Test system: Fibroblast
- TEST METHOD NOTES: Multiplex assay against human fibroblast
- Type: toxicity, cell-based
- TEST SETTINGS: 24 h, 1 µM, compound concentration 1 uM, replicate 1
compounds and their reported Population Fragmented Nuclei (%)
Report the figure in % without appending any unit label.

The cases that follow already have their Population Fragmented Nuclei (%) on record.
• Cc1[nH]c(/C=C2\C(=O)Nc3ccc(S(=O)(=O)N(C)c4cccc(Cl)c4)cc32)c(C)c1C(=O)N1CCN(C)CC1 = 22
• COc1cccc([C@@H](C)NCCCc2ccccc2Cl)c1.Cl [TECALCET HYDROCHLORIDE] = 28
• O=C1NCN(c2ccccc2)C12CCN(CCCOc1ccc(F)cc1)CC2 [SPIRAMIDE] = 31
• COc1cc(-n2cnc3cc(-c4ccc(Cl)cc4)sc3c2=O)ccc1OCCN1CCCC1 = 36
• CN(C)C(=O)/C(C#N)=C/c1ccc(-c2nc3cnc4[nH]ccc4c3n2C2CCCCC2)o1 = 34

Prompt line: What value of Population Fragmented Nuclei (%) has been reported for the following compound? Cc1csc2c(N[C@@H](C)CN3CCN(S(=O)(=O)c4ccc(Cl)c(Cl)c4)CC3)ncnc12
Response line: 26

Prompt line: Now the compound OC1(c2ccc(Cl)cc2)CCN(Cc2c[nH]c3ccccc23)CC1
Response line: 29

Prompt line: Same read-out for CN1CCN(CCOc2cc(OC3CCOCC3)c3c(Nc4c(Cl)ccc5c4OCO5)ncnc3c2)CC1 ?
Response line: 22

----------
- Test system: U2OS
- TEST METHOD NOTES: Multiplex assay against U2OS
- Type: toxicity, cell-based
- TEST SETTINGS: human, 48 h, 10 µM, compound concentration 10 uM, replicate 1
OUTCOME MEASURE: Population Apoptotic (%)
Numbers only; they are read as %.

- CCn1c(=O)c(-c2ccc(Cl)cc2Cl)cc2cnc(Nc3ccc(N4CCNCC4)c(F)c3)nc21: 90

Prompt line: # value lookup — system U2OS, readout Population Apoptotic (%), item CN1CCCC(n2nc(Cc3ccc(Cl)cc3)c3ccccc3c2=O)CC1.Cl (stereo not drawn) [AZELASTINE HYDROCHLORIDE]
Response line: 87

Prompt line: Ok, now CNCc1ccccc1-c1csc([C@H](C)Nc2nc(C)nc3cc(OC)c(OC)cc23)c1 [BAY-294]
Response line: 98

Prompt line: And for Cn1cc(-c2[nH]c3cc(NC(=O)[C@H](N)C4CCCCC4)cc4c3c2C=NNC4=O)cn1 ?
Response line: 83

Prompt line: Input Cc1cc(C)cc(-c2cnc3cc(Cl)c(-c4cccc(O)c4)cc3c2OCCCN)c1
Response line: 83

----------
- Tested on: HEK-293T
- TEST METHOD NOTES: Multiplex assay against HEK293T
- Assay type: toxicity, cell-based
- TEST SETTINGS: human, 12 h, 1 µM, compound concentration 1 uM, replicate 1
OUTCOME MEASURE: Population Normal (%)
Just the number please, in %, no unit attached.

- CN1CCN(c2ccc(OC(F)(F)F)c(Nc3ncc4c(n3)-c3c(c(C(N)=O)nn3CCO)CC4)c2)CC1: 83

Prompt line: Dear colleague, I am looking for the recorded Population Normal (%) of the following compound: O=C1NCN(c2ccccc2)C12CCN(CCCOc1ccc(F)cc1)CC2 [SPIRAMIDE]
Response line: 87

Prompt line: And for CNc1nc(NCc2ccc(NS(C)(=O)=O)cc2Cl)cc(-c2ccccn2)n1 ?
Response line: 82

Prompt line: Item: OC1(c2ccc(Cl)cc2)CCN(Cc2c[nH]c3ccccc23)CC1
Response line: 84

----------
- Tested on: HEK-293T
- TEST METHOD NOTES: Multiplex assay against HEK293T
- Assay type: toxicity, cell-based
- TEST SETTINGS: human, 48 h, 10 µM, compound concentration 10 uM, replicate 1
OUTCOME MEASURE: Population Normal (%)
# value in %; strip the unit string

* Cc1[nH]c(/C=C2\C(=O)Nc3ccc(S(=O)(=O)N(C)c4cccc(Cl)c4)cc32)c(C)c1C(=O)N1CCN(C)CC1 | 84

Prompt line: # get_value(readout='Population Normal (%)', item= CNc1nc(NCc2ccc(NS(C)(=O)=O)cc2Cl)cc(-c2ccccn2)n1 )
Response line: 83

Prompt line: Query COc1cc(-n2cnc3cc(-c4ccc(Cl)cc4)sc3c2=O)ccc1OCCN1CCCC1 next
Response line: 70

Prompt line: Subsequent entry: O=C1NCN(c2ccccc2)C12CCN(CCCOc1ccc(F)cc1)CC2 [SPIRAMIDE]
Response line: 81

Prompt line: Now try Cn1cc(-c2[nH]c3cc(NC(=O)[C@H](N)C4CCCCC4)cc4c3c2C=NNC4=O)cn1 .
Response line: 79

----------
- System: Fibroblast
- TEST METHOD NOTES: Multiplex assay against human fibroblast
- Assay type: toxicity, cell-based
- TEST SETTINGS: 24 h, 1 µM, compound concentration 1 uM, replicate 1
Population Fragmented Nuclei (%) values for the compounds below.
The answer is to be given in %; state only the numeric part.

Solved entries:
• Cc1c(-c2ccc(O)cc2)n(Cc2ccc(OCCN3CCCCCC3)cc2)c2ccc(O)cc12 = 27
• Cc1nc(-c2cn3c(n2)-c2ccc(-c4cnn(C(C)(C)C(N)=O)c4)cc2OCC3)n(C(C)C)n1 = 32

Prompt line: Population Fragmented Nuclei (%) of CNc1nc(NCc2ccc(NS(C)(=O)=O)cc2Cl)cc(-c2ccccn2)n1 on Fibroblast?
Response line: 25

Prompt line: Now consider COc1ncc(-c2ccc3nccc(-c4ccnnc4)c3c2)cc1NS(=O)(=O)c1ccc(F)cc1F and answer again.
Response line: 30

Prompt line: Now give it for CCN(CC)CCCCNc1ncc2cc(-c3cc(OC)cc(OC)c3)c(NC(=O)NC(C)(C)C)nc2n1 too.
Response line: 32

Prompt line: # repeat for C=CC(=O)Nc1ccc2ncnc(Nc3ccc(OCc4cccc(F)c4)c(Cl)c3)c2c1.Cc1ccc(S(=O)(=O)O)cc1
Response line: 26

Prompt line: Follow-up item: CC(C)NCC(O)COc1ccc(CCOCC2CC2)cc1.Cl (stereo unspecified) [BETAXOLOL HYDROCHLORIDE]
Response line: 20

Prompt line: Next compound up: CN1CCN(c2ccc(OC(F)(F)F)c(Nc3ncc4c(n3)-c3c(c(C(N)=O)nn3CCO)CC4)c2)CC1
Response line: 25

Prompt line: Same read-out for Cc1nc(Nc2n[nH]c3c2CN(C(=O)N[C@H](CN(C)C)c2ccccc2)C3(C)C)c2sccc2n1 ?
Response line: 25

Prompt line: Same question for CN1CCC[C@@H]1CCO[C@](C)(c1ccccc1)c1ccc(Cl)cc1.O=C(O)/C=C/C(=O)O [CLEMASTINE FUMARATE] please.
Response line: 36

----------
- System: HEK-293T
- TEST METHOD NOTES: Multiplex assay against HEK293T
- Assay type: toxicity, cell-based
- TEST SETTINGS: human, 48 h, 10 µM, compound concentration 10 uM, replicate 2
OUTCOME MEASURE: Total Cell Count

Some compounds with recorded Total Cell Count:
* COc1ncc(-c2ccc3nccc(-c4ccnnc4)c3c2)cc1NS(=O)(=O)c1ccc(F)cc1F | 163
* C=CC(=O)Nc1ccc2ncnc(Nc3ccc(OCc4cccc(F)c4)c(Cl)c3)c2c1.Cc1ccc(S(=O)(=O)O)cc1 | 187
* NC(=O)Nc1cc(-c2cccc(F)c2)sc1C(=O)N[C@H]1CCCNC1 | 161
* Cl.N#Cc1ccc2[nH]cc(CCCCN3CCN(c4ccc5oc(C(N)=O)cc5c4)CC3)c2c1 [VILAZODONE HYDROCHLORIDE] | 191

Prompt line: I would be grateful if you could share the reported Total Cell Count for Cc1c(-c2ccc(O)cc2)n(Cc2ccc(OCCN3CCCCCC3)cc2)c2ccc(O)cc12 .
Response line: 163

Prompt line: Lookup CNc1nc(NCc2ccc(NS(C)(=O)=O)cc2Cl)cc(-c2ccccn2)n1
Response line: 202

Prompt line: Moving on to CN1CCN(c2ccc(OC(F)(F)F)c(Nc3ncc4c(n3)-c3c(c(C(N)=O)nn3CCO)CC4)c2)CC1
Response line: 246

Prompt line: Do the same for CC(C)NCC(O)COc1ccc(CCOCC2CC2)cc1.Cl (configuration not stated) [BETAXOLOL HYDROCHLORIDE] please
Response line: 435

Prompt line: Subsequent entry: CCOCCn1cc(C(=O)Nc2ccc(-n3nc(-c4cccnc4)cc3C(F)(F)F)cn2)ccc1=O
Response line: 283

Prompt line: Also OC1(c2ccc(Cl)cc2)CCN(Cc2c[nH]c3ccccc23)CC1 ?
Response line: 224

Prompt line: Also, CN(C)CC#Cc1ccc(OCCCc2sc(N3CCc4cccc(C(=O)Nc5nc6ccccc6s5)c4C3)nc2C(=O)O)c(F)c1 please.
Response line: 365

Prompt line: What about this compound? CN(C)C(=O)N[C@H]1CC[C@H](CCN2CCN(c3cccc(Cl)c3Cl)CC2)CC1.Cl [CARIPRAZINE HYDROCHLORIDE]
Response line: 274

Prompt line: Param item: CN1CCCC(n2nc(Cc3ccc(Cl)cc3)c3ccccc3c2=O)CC1.Cl (configuration not stated) [AZELASTINE HYDROCHLORIDE]
Response line: 231

Prompt line: Please answer likewise for COc1cc2nccc(Oc3ccc(NC(=O)Nc4cc(C)on4)c(Cl)c3)c2cc1OC.O
Response line: 292

Prompt line: Continue with COc1cc(-n2cnc3cc(-c4ccc(Cl)cc4)sc3c2=O)ccc1OCCN1CCCC1
Response line: 256

Prompt line: Another compound: Cc1csc2c(N[C@@H](C)CN3CCN(S(=O)(=O)c4ccc(Cl)c(Cl)c4)CC3)ncnc12
Response line: 199

Prompt line: Param item: CN1CCC[C@@H]1CCO[C@](C)(c1ccccc1)c1ccc(Cl)cc1.O=C(O)/C=C/C(=O)O [CLEMASTINE FUMARATE]
Response line: 168
